Data provenance: PubChem BioAssay (Tox21)

biological target: Cytochrome P450 2C9 (Homo sapiens); experiment: Cytochrome P450 Family 2 Subfamily C Member 9 (CYP2C9) small molecule antagonists: luciferase reporter qHTS assay (AID 1671198); settings: P450-Glo CYP2C9 enzyme assay, luciferin luminescence; series mostly up to 115 µM; also: nearly all actives have a fitted effect of over 50% in size
Results filed as inconclusive are left out. Calls of active or inactive are those of the source. Calls follow the shape of the dose curve; as a rule, active = well fitted inhibition curve with a large enough effect in the repeat runs; inconclusive = weak or mixed curves; inactive = no such curve, though single readings can be large or run the other way.
# output must be one of active, inactive

Past entries and their recorded results:
// query What did this assay record as the result for CCCOC(=O)c1ccc(C(=O)OCCC)nc1 ?
// result active

// query What did this assay record as the result for O=C(Nc1ccc([N+](=O)[O-])cc1)Nc1ccc([N+](=O)[O-])cc1 ?
// result inactive

// query What did this assay record as the result for Oc1ccc(Nc2ccccc2)cc1 ?
// result active

// query What did this assay record as the result for CNCCCC1c2ccccc2C=Cc2ccccc21 ?
// result inactive

Continuing:
// query What did this assay record as the result for CCCCCCCCCCCCCCC[C@H](O)[C@@H](N)CO ?
// result inactive

// query What did this assay record as the result for C[N+](C)(C)CCOC(N)=O ?
// result inactive

// query What did this assay record as the result for NC(=O)N(O)[C@@H]1C=C[C@H](Oc2cccc(Oc3ccc(F)cc3)c2)C1 ?
// result active

// query What did this assay record as the result for CCCCCCCCSCCO ?
// result active

// query What did this assay record as the result for CNC(=S)NC ?
// result inactive

// query What did this assay record as the result for CC(=O)N(c1onc(C)c1C)S(=O)(=O)c1ccc(N)cc1 ?
// result inactive

// query What did this assay record as the result for C=CC(C)=CCC=C(C)C ?
// result active

// query What did this assay record as the result for Fc1ccccc1[C@@H](F)COC1CCC(Nc2ncnc3[nH]ncc23)CC1 (stereo not given in full) ?
// result active

// query What did this assay record as the result for CC1CC(O)CC(C)(C)C1 (stereo not given) ?
// result inactive

// query What did this assay record as the result for Cc1nc2ccccn2c(=O)c1CCN1CCC(C(=O)c2ccc(F)cc2)CC1 ?
// result inactive
